- Target Entity: SIK2 (Homo sapiens, UniProt Q9H0K1)
- Sequence (Q9H0K1 whole entry, species assumed): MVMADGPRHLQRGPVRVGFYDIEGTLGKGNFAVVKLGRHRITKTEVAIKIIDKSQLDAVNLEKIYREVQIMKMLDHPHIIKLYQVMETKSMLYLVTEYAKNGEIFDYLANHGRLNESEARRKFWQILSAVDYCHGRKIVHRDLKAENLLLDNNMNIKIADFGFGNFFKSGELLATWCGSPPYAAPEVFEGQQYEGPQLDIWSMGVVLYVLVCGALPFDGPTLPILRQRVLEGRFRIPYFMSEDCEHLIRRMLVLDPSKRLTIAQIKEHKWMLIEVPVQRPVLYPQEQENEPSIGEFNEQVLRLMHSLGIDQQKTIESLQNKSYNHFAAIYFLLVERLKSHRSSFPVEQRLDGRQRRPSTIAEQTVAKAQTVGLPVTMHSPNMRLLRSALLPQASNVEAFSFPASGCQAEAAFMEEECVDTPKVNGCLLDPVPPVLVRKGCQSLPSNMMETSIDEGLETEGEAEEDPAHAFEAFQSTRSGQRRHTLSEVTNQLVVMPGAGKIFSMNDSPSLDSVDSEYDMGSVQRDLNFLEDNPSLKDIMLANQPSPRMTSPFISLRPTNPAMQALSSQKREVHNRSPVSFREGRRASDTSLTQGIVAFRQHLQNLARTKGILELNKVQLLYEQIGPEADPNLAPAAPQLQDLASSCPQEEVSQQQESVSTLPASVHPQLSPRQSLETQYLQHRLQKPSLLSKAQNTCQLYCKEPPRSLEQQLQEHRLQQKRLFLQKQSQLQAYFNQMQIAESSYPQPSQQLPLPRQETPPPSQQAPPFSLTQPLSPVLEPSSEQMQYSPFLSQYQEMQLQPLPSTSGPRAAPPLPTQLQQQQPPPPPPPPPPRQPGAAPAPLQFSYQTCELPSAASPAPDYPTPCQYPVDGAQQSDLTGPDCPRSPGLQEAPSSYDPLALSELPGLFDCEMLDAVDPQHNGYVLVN
- Protocol Notes: SIK2 Enzymatic Assay High Version 2 (High ATP)
- Format: biochemical
- Study Conditions: enzyme 6 nM, 6 mM ATP and 400 μM HDAC5tide (each 2× final concentration); 30 minutes pre-incubation, 2 hours; ADP-Glo Max luminescence; read-out: SIK2 high ATP IC50 (μM) (Test Example 2)
Assignment: determine reported IC50 for the given molecules.
Give your result in µM as a bare value.

Note to self: IC50 recorded for `COc1cc(Nc2cc3cc(-c4cc(C)ncc4OCC(C)(C)O)ccn3n2)cc(OC)c1` was 0.0313

Note to self: IC50 recorded for `Cc1cc(-c2ccn3nc(Nc4cc(C)c(=O)n(CCOC(F)F)n4)cc3c2)c(OCC(C)(C)O)cn1` was 0.0188

Note to self: IC50 recorded for `Cc1cc(-c2ccn3nc(Nc4cc(C)nc(C)n4)cc3c2)c(OCC(C)(C)NS(C)(=O)=O)cn1` was 0.00703

Note to self: IC50 recorded for `Cn1ccc(Nc2cc3cc(-c4cc(C#N)cnc4OC[C@@H]4CNCCO4)ccn3n2)n1` was 0.00339
